The measured values listed here are drawn from ChEMBL document CHEMBL3351752.

- Test system: Staphylococcus aureus
- protocolNotes: Inhibition of Staphylococcus aureus DNA gyrase ATPase subunit GyrA2/GyrB2 after 60 mins by malachite green staining assay
propertyMeasured: inhibitory concentration

Solved cases (3 shown):
{"compound": "CCNC(=O)Nc1nc2cc(-c3cnc(C4(O)CCCCC4)nc3)cc(-c3ccccn3)c2s1", "inhibitory concentration": "0.054 µg/mL"}
{"compound": "CCNC(=O)Nc1nc2cc(-c3cnc(C(C)(C)O)nc3)cc(-c3cc(CN4CCC(C)(O)C4)ccn3)c2s1 (centres undefined)", "inhibitory concentration": "0.008 µg/mL"}
{"compound": "CCNC(=O)Nc1nc2cc(-c3cnc(C(C)(C)O)nc3)cc(-c3cc(CN4CC[C@H](F)C4)ccn3)c2s1", "inhibitory concentration": "0.008 µg/mL"}

Request: // query inhibitory concentration value for entry CCNC(=O)Nc1nc2cc(-c3cnc(C(O)CN4CCOCC4)nc3)cc(-c3ccccn3)c2s1 (racemic)
Response: 0.011 µg/mL

Request: // query inhibitory concentration value for entry CCNC(=O)Nc1nc2cc(-c3cnc(C(C)(C)O)nc3)cc(-c3cc(CN4CCC(F)(F)C4)ccn3)c2s1
Response: 0.007 µg/mL

Request: // query inhibitory concentration value for entry CCNC(=O)Nc1nc2cc(-c3cnc(C(C)(C)O)nc3)cc(-c3cc(CN4CC(OC)C4)ccn3)c2s1
Response: 0.011 µg/mL

Request: // query inhibitory concentration value for entry CCCC(O)c1ncc(-c2cc(-c3ccccn3)c3sc(NC(=O)NCC)nc3c2)cn1 (racemic)
Response: 0.007 µg/mL

* * *

Entries and their measured inhibitory concentration follow.
- Tested on: Staphylococcus aureus
- protocolNotes: Inhibition of Staphylococcus aureus DNA gyrase ATPase subunit GyrA2/GyrB2 after 60 mins by malachite green staining assay
Could you give me the number in µg/mL? Just the number is fine.

Solved cases (4 shown):
{"compound": "CCNC(=O)Nc1nc2cc(-c3cnc(C(C)(C)O)nc3)cc(-c3cc(CN4CC(C)(O)C4)ccn3)c2s1", "inhibitory concentration / µg/mL": 0.011}
{"compound": "CCNC(=O)Nc1nc2cc(-c3cnc(C(C)(C)O)nc3)cc(-c3cc(CNC4CC4)ccn3)c2s1", "inhibitory concentration / µg/mL": 0.006}
{"compound": "CCNC(=O)Nc1nc2cc(-c3cnc(C(O)(CC)CC)nc3)cc(-c3ccccn3)c2s1", "inhibitory concentration / µg/mL": 0.017}
{"compound": "CCNC(=O)Nc1nc2cc(-c3cnc([C@@H](O)[C@H](O)C(F)(F)F)nc3)cc(-c3ccccn3)c2s1 (racemic)", "inhibitory concentration / µg/mL": 0.005}

API: the following record is the query input.
Request: // query inhibitory concentration value for entry CCNC(=O)Nc1nc2cc(-c3cnc(C(C)(C)O)nc3)cc(-c3ccccn3)c2s1
Response: 0.006

* * *

Entries and their measured MIC follow.
- Tested on: Haemophilus influenzae
- protocolNotes: Antibacterial activity against Haemophilus influenzae 49247 assessed as growth inhibition
- Type: functional
Could you give me the number in µg/mL? Just the number is fine.

Request: // query MIC value for entry CCNC(=O)Nc1nc2cc(-c3cnc(C(O)CO)nc3)cc(-c3ccccn3)c2s1 (racemic)
Response: 0.5

Request: // query MIC value for entry CCNC(=O)Nc1nc2cc(-c3cnc(C(C)(O)CO)nc3)cc(-c3ccccn3)c2s1 (racemic)
Response: 0.5

Request: // query MIC value for entry CCNC(=O)Nc1nc2cc(-c3cnc(C(C)(C)O)nc3)cc(-c3ccccn3)c2s1
Response: 1

Request: // query MIC value for entry CCNC(=O)Nc1nc2cc(-c3cnc([C@@H](O)[C@@H](O)C(F)(F)F)nc3)cc(-c3ccccn3)c2s1 (racemic)
Response: 0.5
